- Compound: "CC(C)(C)c1ccc(-n2nnc(-c3ccc(S(=O)(=O)N[C@H](Cc4ccccc4)C(=O)O)cc3)n2)cc1"
  melting point: "224 to 226 °C"
- Compound: "CSc1ccc(-n2nnc(-c3ccc(S(=O)(=O)N[C@H](Cc4ccccc4)C(=O)O)cc3)n2)cc1 (hydrate or solvate)"
  melting point: "222 to 224 °C"
- Compound: "O=C(O)[C@@H](Cc1c[nH]c2ccccc12)NS(=O)(=O)c1ccc(-c2nnn(-c3ccc(F)cc3)n2)cc1"
  melting point: "203 to 205 °C"

----------
Collected IC50 values appear next to each entry.
Target: MMP-9 (92 kDa, gelatinase B; type IV collagenase) (Homo sapiens, UniProt P14780)
Construct: endogenous in cells; enzyme purified from the conditioned medium
Sequence (P14780 107-707 limits assumed): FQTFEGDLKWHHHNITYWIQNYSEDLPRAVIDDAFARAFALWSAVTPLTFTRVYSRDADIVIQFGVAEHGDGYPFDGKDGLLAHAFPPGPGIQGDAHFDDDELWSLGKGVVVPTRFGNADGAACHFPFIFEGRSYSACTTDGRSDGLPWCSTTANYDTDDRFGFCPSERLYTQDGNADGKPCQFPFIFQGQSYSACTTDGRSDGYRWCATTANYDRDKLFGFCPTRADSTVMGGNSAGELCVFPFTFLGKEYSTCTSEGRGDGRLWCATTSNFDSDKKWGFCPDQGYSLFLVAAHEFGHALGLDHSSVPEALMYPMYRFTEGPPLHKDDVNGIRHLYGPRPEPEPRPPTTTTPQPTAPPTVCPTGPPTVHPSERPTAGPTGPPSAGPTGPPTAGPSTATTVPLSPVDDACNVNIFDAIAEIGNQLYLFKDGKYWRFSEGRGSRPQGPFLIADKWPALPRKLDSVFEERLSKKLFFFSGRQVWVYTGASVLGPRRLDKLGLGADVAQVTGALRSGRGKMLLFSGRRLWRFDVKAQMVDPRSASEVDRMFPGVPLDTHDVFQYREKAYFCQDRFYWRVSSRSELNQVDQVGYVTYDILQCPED
Experiment: Assay of type IV collagenase inhibitors: activated MMP-9 with type IV collagenase activity kit substrate, fluorescent intensity
Type: biochemical

- Smiles text: "O=C(O)[C@@H](Cc1c[nH]c2ccccc12)NS(=O)(=O)c1ccc(-c2nnn(-c3ccccc3)n2)cc1"
  IC50: "24 nM"
- Smiles text: "COc1ccc(C(=O)Nc2ccc(S(=O)(=O)N[C@H](Cc3ccccc3)C(=O)O)cc2)cc1"
  IC50: "98.2 nM"
- Smiles text: "Cc1ccc(-n2nnc(-c3ccc(S(=O)(=O)N[C@@H](C(=O)O)C(C)C)cc3)n2)cc1"
  IC50: "23.9 nM"
- Smiles text: "COc1ccc(C(=O)Nc2ccc(S(=O)(=O)N[C@@H](C(=O)O)C(C)C)cc2)cc1"
  IC50: "173 nM"
